Values were extracted from PubChem BioAssay.

- Procedure Details: RAM signaling pathway blockade in yeast – S. cerevisiae, Pdr1DBD-CYC8 efflux-inhibited sensitized strain, primary screen (AID 1298);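 note: higher means more yeast growth rescued from 5-FOA killing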
- Run Parameters: S. cerevisiae cbk1-as DSE1-URA3 strain, 5-FOA growth OD615, 2 d; at 50 µM; stronger effect = higher value
Label rule, in plain words: RAM network inhibition of 3% and up is YES, under 3% is NO.

- Compound: "Oc1cc(Cc2ccccc2)cnc1CN1CCOCC1"
  Class Name: "NO"
- Compound: "Cc1cc(N2CCN(C(c3ccccc3)c3ccc(Cl)cc3)CC2)n2ncnc2n1 (centres undefined)"
  Class Name: "YES"
- Compound: "COc1ccc(NC(=O)C2CCN(S(=O)(=O)c3ccc(OC)c(OC)c3)CC2)c(OC)c1"
  Class Name: "NO"
- Compound: "CCCOc1ccccc1C1NC(=O)NC(C)=C1C(=O)OCCOC(C)C (centres undefined)"
  Class Name: "YES"
- Compound: "O=C(NCCCc1ccccc1)C1CCN(c2nnc(-n3cccc3)s2)CC1"
  Class Name: "YES"
- Compound: "O=C(Cn1ncc2c1-c1ccccc1OC2)Nc1ccc(S(=O)(=O)N2CCCCC2)cc1"
  Class Name: "YES"
- Compound: "O=C(CSCC(=O)N1CCOCC1)Nc1ccccc1"
  Class Name: "NO"
- Compound: "CCOc1ccc(C(=O)CCNC(Cc2cnc[nH]2)C(=O)O)cc1 (centres undefined)"
  Class Name: "YES"
- Compound: "CCCCOC(=O)CSc1nnc(N)s1"
  Class Name: "YES"
